Experiment: physchem
Details: buffered solution containing 5% DMSO
MEASURED ENDPOINT: pKa at 100 µM

As a guide, the following entries are already answered.
1) Cc1cc(C)cc(NC2=C(NS(=O)(=O)c3c(F)cccc3F)C(=O)c3ccccc3C2=O)c1; 8.4
2) O=C1C(NS(=O)(=O)c2ccccc2)=C(c2ccco2)C(=O)c2ccccc21; 5.1
3) O=C1C(Nc2ccccc2)=C(NS(=O)(=O)c2ccccc2)C(=O)c2c1cccc2[N+](=O)[O-]; 8.4
4) O=C1C(Nc2ccccc2)=C(NS(=O)(=O)c2ccccc2)C(=O)c2ccccc21; 9.5
5) O=C(Cc1ccccc1)NC1=C(c2ccoc2)C(=O)c2ccccc2C1=O; 12.5
6) Cc1ccc(S(=O)(=O)NC2=C(Nc3cc(C)cc(C)c3)C(=O)c3ccccc3C2=O)cc1; 9.7
7) O=C1C(NS(=O)(=O)c2ccccc2)=C(Oc2ccccc2)C(=O)c2ccccc21; 5

1: O=Cc1cccc(C2=C(NC(=O)Cc3ccccc3)C(=O)c3ccccc3C2=O)c1
2: O=C1C(NS(=O)(=O)c2ccccc2)=C(c2cccc(Cl)c2)C(=O)c2ccccc21
Request: Could you tell me which of these two has the smaller pKa at 100 µM figure? First: 1 Second: 2 State your choice using its label.
Result: 2
(2: 4.5, 1: 11.4)
